The reported measurements were obtained from patent US20260158172A1.

- Test system: HCT-116 cells
- TEST_NAME: Cell viability (CellTiter-Glo), Experimental Example 5: type of PARP inhibitor
- Format: cell-based
- ASSAY_CONDITIONS: drug_only (no Cas protein, no guide RNA), olaparib 1 μM, rucaparib 1 μM, niraparib 0.1 μM, veliparib 2 μM
ATTRIBUTE_MEASURED: Relative cell viability (average, n = 3)

{"SMILES_CODE": "NC(=O)c1cccc2cn(-c3ccc([C@@H]4CCCNC4)cc3)nc12", "EXPERIMENTAL_RESULT": 0.9015}
{"SMILES_CODE": "C[C@]1(c2nc3c(C(N)=O)cccc3[nH]2)CCCN1", "EXPERIMENTAL_RESULT": 0.8648}
{"SMILES_CODE": "CNCc1ccc(-c2[nH]c3cc(F)cc4c3c2CCNC4=O)cc1", "EXPERIMENTAL_RESULT": 1.0701}
{"SMILES_CODE": "O=C(c1cc(Cc2n[nH]c(=O)c3ccccc23)ccc1F)N1CCN(C(=O)C2CC2)CC1", "EXPERIMENTAL_RESULT": 1.1219}
